Attribute: AC1.4
# Test system: Bovine cardiac myofibrils
# protocolText: In vitro model of dose-dependent myofibril ATPase modulation (AC1.4, pyruvate kinase/lactate dehydrogenase-coupled ATPase assay at pCa25)
# Type: biochemical
# experimentalParameters: concentration at which ATPase activity was 1.4-fold higher than the bottom of the dose curve, mean of a minimum of two independent tests
readoutName: AC1.4

                                    compound  readoutname  resultvalue
 0  CN1CCN(S(=O)(=O)N2CC(C#N)C2)CC1C(=O)N1CCC[C@@H]1C(=O)NCc1ccc(C(F)(F)F)cc1 (some centres unmarked)        AC1.4    4.1855 µM
 1  O=C(NCc1ccc(C(F)(F)F)cc1)[C@H]1CCCN1C(=O)c1cccc(S(=O)(=O)N2CC3(CC3)C2)c1        AC1.4    1.0349 µM
 2  CS(=O)(=O)c1cccc(C(=O)N2CCC[C@@H]2C(=O)N[C@@H](c2cc(F)c(C(F)(F)F)cc2F)[C@H]2C[C@H](O)C2)c1        AC1.4    0.1639 µM
 3  N#CC1CN(S(=O)(=O)c2cccc(C(=O)N3CCC[C@@H]3C(=O)NCc3ccc(C(F)(F)F)cn3)c2)C1        AC1.4    4.3367 µM
 4  O=C(NCc1ccc(C(F)(F)F)cc1)[C@H]1CCCN1C(=O)[C@H]1CCCN(S(=O)(=O)N2CC(NC(=O)C(F)(F)F)C2)C1        AC1.4    2.2325 µM
 5  C[C@H](C(=O)N[C@H](C)c1ccc(C(F)(F)F)cc1)N(C)C(=O)c1cccc(S(=O)(=O)N2CC(C#N)C2)c1        AC1.4    0.1828 µM
 6  N#CC1CN(S(=O)(=O)c2cccc(C(=O)N3Cc4ccccc4CC3C(=O)NCc3ccc(C(F)(F)F)cc3)c2)C1 (centres unmarked)        AC1.4     4.776 µM
 7  O=C(N[C@@H](c1cc(F)c(Cl)cc1F)C1CC1)[C@H]1C[C@H]2C[C@H]2N1C(=O)c1cccc(C(F)(F)F)c1        AC1.4    0.2088 µM
 8  NS(=O)(=O)c1ccc(Cl)c(C(=O)N2CCC[C@@H]2C(=O)N[C@@H](c2ccc(C(F)(F)F)cc2F)C2CC2)c1        AC1.4     5.299 µM
 9  N#CC1CN(S(=O)(=O)N2CCC[C@H](C(=O)N3CCOC[C@@H]3C(=O)NCc3ccc(C(F)F)cc3)C2)C1        AC1.4     1.844 µM
10  CCC(NC(=O)[C@H]1CCCN1C(=O)[C@H]1CCCN(S(=O)(=O)N2CC(C#N)C2)C1)c1ccccc1OC (some centres unmarked)        AC1.4    9.7525 µM
11  O=C(NCc1ccc(C(F)(F)F)cc1)[C@H]1CCCN1C(=O)[C@H]1CCCN(S(=O)(=O)N2CCC23CCC3)C1        AC1.4     9.537 µM
12  O=C(N[C@@H](c1ccc(C(F)(F)F)cc1F)C1CC1)[C@H]1C[C@H]2C[C@H]2N1C(=O)c1ccnc(C(F)(F)F)c1        AC1.4     2.278 µM
13  Cc1ccc(C(=O)N2[C@@H](C(=O)N[C@@H](c3ccc(C(F)(F)F)cc3F)C3COC3)C[C@H]3C[C@H]32)cc1S(C)(=O)=O        AC1.4      6.61 µM
14  CS(=O)(=O)c1ccnc(C(=O)N2[C@@H](C(=O)N[C@@H](c3ccc(C(F)(F)F)cc3F)C3CC3)C[C@H]3C[C@H]32)c1        AC1.4     1.547 µM
15  N#CC1CN(S(=O)(=O)N2CCC[C@H](C(=O)N3CCC[C@@H]3C(=O)NC3CCC3C(F)(F)F)C2)C1 (some centres unmarked)        AC1.4    9.4535 µM
16  NS(=O)(=O)c1cccc(C(=O)N2C[C@@H](F)C[C@@H]2C(=O)N[C@@H](c2ccc(C(F)(F)F)cc2F)C2CC2)c1        AC1.4     2.553 µM

----------
# Tested on: Bovine cardiac myofibrils
# protocolText: In vitro model of dose-dependent myofibril ATPase modulation (AC1.4, pyruvate kinase/lactate dehydrogenase-coupled ATPase assay at pCa25)
# Assay type: biochemical
# experimentalParameters: concentration at which ATPase activity was 1.4-fold higher than the bottom of the dose curve, mean of a minimum of two independent tests
Decide using AC1.4: a value greater than or equal to 2 µM is Satisfied, a smaller one is Not satisfied.

compound	categoryLabel
CC[C@@H](NC(=O)[C@H]1CCCN1C(=O)c1cccc(S(=O)(=O)N2CC(C#N)C2)c1)c1cc(F)cc(F)c1 [Example 124]	Not satisfied
NS(=O)(=O)c1cccc(C(=O)N2CCCC[C@@H]2C(=O)N[C@@H](c2ccc(C(F)(F)F)cc2F)C2CC2)c1 [Example 359]	Not satisfied
N#Cc1cccc(C(=O)N2CCC[C@@H]2C(=O)N[C@@H](c2ccc(C(F)(F)F)cc2F)C2CC2)c1 [Example 701]	Satisfied
O=C(N[C@@H](c1ccc(C(F)(F)F)cc1F)C1COC1)[C@H]1C[C@H]2C[C@H]2N1C(=O)c1ccnc(C(F)F)c1 [Example 480]	Satisfied
N#CC1CN(S(=O)(=O)c2cccc(C(=O)N3CCC[C@@H]3C(=O)N[C@H](CO)c3ccc(Cl)c(F)c3)c2)C1 [Example 24]	Not satisfied
COC1CN(S(=O)(=O)c2cccc(C(=O)N3CCC[C@@H]3C(=O)NCc3ccc(C(F)(F)F)cc3)c2)C1 [Example 258]	Not satisfied
O=C(O[C@@H]1CC(C(=O)N[C@@H](c2cc(F)c(Cl)cc2F)C2COC2)N(C(=O)c2ccnc(C(F)F)c2)C1)c1ccnc(C(F)F)c1 (stereo partly shown) [Example 476]	Satisfied
CS(=O)(=O)c1cc(C(=O)N2CCC[C@@H]2C(=O)N[C@@H](c2ccc(C(F)(F)F)cc2F)C2CC2)ccn1 [Example 675]	Satisfied
CC[C@@H](NC(=O)[C@H]1CCCN1C(=O)c1cccc(S(=O)(=O)N(C)C)c1)c1ccc(C(F)(F)F)cc1F [Example 146]	Not satisfied
O=C(N[C@@H](c1ccc(C(F)(F)F)cc1F)C1CC1)[C@H]1CCCN1C(=O)c1cccc(S(=O)(=O)C2CC2)c1 [Example 223]	Not satisfied
COc1ccc(Cl)cc1CNC(=O)[C@H]1CCCN1C(=O)[C@H]1CCCN(S(=O)(=O)N2CC(C#N)C2)C1 [Example 770]	Satisfied
O=C(N[C@@H](c1ccc(C(F)(F)F)cc1F)C1COC1)[C@H]1C[C@H]2C[C@H]2N1C(=O)c1cccc(C(F)(F)F)n1 [Example 789]	Satisfied
Cc1ccc(CNC(=O)[C@H]2CCCN2C(=O)c2cccc(S(=O)(=O)N3CC(C#N)C3)c2)c(F)c1 [Example 76]	Not satisfied

----------
Attribute: AC1.4
# Test system: Bovine cardiac myofibrils
# protocolText: In vitro model of dose-dependent myofibril ATPase modulation (AC1.4, pyruvate kinase/lactate dehydrogenase-coupled ATPase assay at pCa25)
# Type: biochemical
# experimentalParameters: concentration at which ATPase activity was 1.4-fold higher than the bottom of the dose curve, mean of a minimum of two independent tests
readoutName: AC1.4 (µM)

>>> df
                                    compound  readoutname  resultvalue
 0  CC(C)(C(N)=O)c1cccc(C(=O)N2[C@@H](C(=O)N[C@@H](c3cc(F)c(Cl)cc3F)C3COC3)C[C@H]3C[C@H]32)c1        AC1.4       0.6526
 1  Cc1ccc(CNC(=O)[C@H]2CCCN2C(=O)[C@H]2CCCN(S(=O)(=O)N3CC(C#N)C3)C2)c(C)c1        AC1.4        0.632
 2  N#CC1CN(S(=O)(=O)N2CCN[C@H](C(=O)N3CCC[C@@H]3C(=O)NCc3cc(Cl)cc(Cl)c3)C2)C1        AC1.4       8.9725
 3  Cc1cc(CNC(=O)[C@H]2CCCN2C(=O)[C@H]2CCCN(S(=O)(=O)N3CC(C#N)C3)C2)ccc1F        AC1.4       1.7125
 4  O=C(NCc1ccc(C(F)(F)F)nc1)[C@H]1CCCCN1C(=O)c1cccc(S(=O)(=O)N2CC(F)(F)C2)c1        AC1.4        9.448
 5  CS(=O)(=O)c1cncc(C(=O)N2CC(F)(F)C2C(=O)N[C@@H](c2cc(F)c(C(F)(F)F)cc2F)C2CC2)c1 (stereo partly drawn)        AC1.4        8.015
 6  N#CC1CN(S(=O)(=O)N2CCC[C@H](C(=O)N3CCC[C@@H]3C(=O)NCc3ccc(Cl)cc3F)C2)C1        AC1.4      0.08855
 7  O=C(NCc1ccc(C(F)(F)F)cc1F)[C@H]1CCCN1C(=O)[C@H]1CCCN(S(=O)(=O)N2CC(O)(C3CC3)C2)C1        AC1.4       0.4078
 8  CS(=O)(=O)c1cc(C(=O)N2CCC[C@@H]2C(=O)N[C@@H](c2cc(F)c(Cl)cc2F)C2CC2)ccn1        AC1.4       1.4335
 9  Cc1ccc(F)cc1CNC(=O)[C@H]1CCCN1C(=O)[C@H]1CCCN(S(=O)(=O)N2CC(C#N)C2)C1        AC1.4       2.3805
10  N#CC1CN(S(=O)(=O)N2CCC[C@H](C(=O)N3C[C@H](O)C[C@@H]3C(=O)NCc3ccc(C(F)(F)F)cc3)C2)C1        AC1.4       0.5685
11  O=C(NCc1ccc(C(F)(F)F)cc1)[C@H]1CCCN1C(=O)[C@H]1CCCN(S(=O)(=O)N2CC(n3cncn3)C2)C1        AC1.4        5.023
